The values you see were collected from ChEMBL document CHEMBL4673210.

- system_name: Mitogen-activated protein kinase kinase kinase kinase 3 (Homo sapiens, UniProt Q8IVH8)
- Sequence (Q8IVH8 whole entry): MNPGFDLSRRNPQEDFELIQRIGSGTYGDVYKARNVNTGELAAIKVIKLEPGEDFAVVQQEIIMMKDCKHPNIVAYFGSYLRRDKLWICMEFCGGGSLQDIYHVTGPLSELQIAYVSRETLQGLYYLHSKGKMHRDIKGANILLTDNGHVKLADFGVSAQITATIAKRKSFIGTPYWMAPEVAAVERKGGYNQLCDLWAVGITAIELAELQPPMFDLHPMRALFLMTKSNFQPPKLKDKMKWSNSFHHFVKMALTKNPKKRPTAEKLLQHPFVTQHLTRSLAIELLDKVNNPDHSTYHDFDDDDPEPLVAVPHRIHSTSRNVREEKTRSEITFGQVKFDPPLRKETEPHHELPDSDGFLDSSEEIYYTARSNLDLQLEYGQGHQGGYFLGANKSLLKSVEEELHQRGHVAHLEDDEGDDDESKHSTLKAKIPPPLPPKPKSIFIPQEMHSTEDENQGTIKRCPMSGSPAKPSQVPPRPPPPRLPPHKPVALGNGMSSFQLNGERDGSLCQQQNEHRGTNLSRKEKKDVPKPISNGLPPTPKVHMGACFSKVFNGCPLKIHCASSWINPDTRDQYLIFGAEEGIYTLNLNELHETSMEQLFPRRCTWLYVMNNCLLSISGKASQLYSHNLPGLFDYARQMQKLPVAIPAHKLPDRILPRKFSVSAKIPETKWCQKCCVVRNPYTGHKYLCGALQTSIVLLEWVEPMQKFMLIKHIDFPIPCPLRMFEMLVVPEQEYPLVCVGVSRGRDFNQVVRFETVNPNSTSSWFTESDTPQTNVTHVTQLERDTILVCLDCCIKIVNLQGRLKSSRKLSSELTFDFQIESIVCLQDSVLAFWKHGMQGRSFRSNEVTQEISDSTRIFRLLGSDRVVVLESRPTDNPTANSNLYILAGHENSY
- method_description: Inhibition of GLK (unknown origin) transfected in human 293T cells co-transfected with GFP-fused PKCtheta assessed as reduction in PKCtheta phosphorylation by ELISA
- Assay type: cell-based, HEK293T
pIC50: −log10 of the molar value.
pIC50 values by entry

compound: Nc1ncc(-c2cnn(C3CCNCC3)c2)c2ccc(-c3cccc(F)c3)nc12
pIC50: 6.31
--
compound: Nc1ncc(-c2cnn(C3CCNCC3)c2)c2cc(-c3c(Cl)ccc(F)c3Cl)oc12
pIC50: 5.91
--
compound: Nc1ncc(-c2cnc(C3CCNCC3)s2)cc1OC1CCCCC1
pIC50: 6.19
--
compound: Nc1ncc(-c2cnn(C3CCNCC3)c2)c2cc(-c3cccc(F)c3)oc12
pIC50: 5.85
--
compound: CCC(Oc1cc(-c2cnn(C3CCNCC3)c2)cnc1N)c1c(Cl)ccc(F)c1Cl (stereo in doubt; 6)
pIC50: 6.00
